Item-by-item account of TGI
tested on: MCF7 breast; test: NCI tumour cell line growth inhibition, 48 h
recorded.metric: TGI

compound=Cn1c(C(=O)c2cccc3ccccc23)nc2ccccc21 result="> 100 µM"
compound=CSC1=Nc2c(c(C)c(-c3ccccc3)n2COC(CO)CO)C2=NC(=O)CN12 result="> 100 µM"
compound=Cc1ccc(/C=C2\Cc3cc(C)c(C)cc3C2=O)c(C(=O)O)c1 result="> 100 µM"
compound="C=CCNC(=O)CN(CC(=O)OC)C1CCCCC1N(CC(=O)OC)CC(=O)OC (stereo unspecified)" result="> 100 µM"
compound=CC(C)N(Cc1ccc(F)cc1)c1ccc(CO)c(Cl)c1 result="13.2 µM"
compound=CNC(=O)CCCNC(=O)CCCC(=O)OC result="> 100 µM"
compound=Cc1ccc(-n2c(-c3cc4c([nH]c5ccccc54)c(-c4cccc(O)c4)n3)n[nH]c2=S)cc1 result="10.5 µM"
compound=O=C1/C(=C/c2cccs2)NC(=S)N1CN1CCCCC1 result="> 100 µM"
compound="CC(C)=CC(=O)OC1C2C(C)=CC(O)C(O)C2(C)C2C3(O)OCC24C(CC(=O)OC14)C(C)C3O (stereo unspecified)" result="0.107 µM"
compound=CC(=O)N(CC(=O)C(=O)NNc1ccoc1)c1ccc(Cl)cc1 result="> 100 µM"
compound=c1cncc(CSc2ncnc3nc[nH]c23)c1 result="> 100 µM"
